Molecular target: T1, β-catenin (UniProt P35222 134-665, limits assumed, biotinylated in the SPR and plate assays)
T1 construct: also called beta catenin; biotinylated β-catenin
T1 sequence (looked up): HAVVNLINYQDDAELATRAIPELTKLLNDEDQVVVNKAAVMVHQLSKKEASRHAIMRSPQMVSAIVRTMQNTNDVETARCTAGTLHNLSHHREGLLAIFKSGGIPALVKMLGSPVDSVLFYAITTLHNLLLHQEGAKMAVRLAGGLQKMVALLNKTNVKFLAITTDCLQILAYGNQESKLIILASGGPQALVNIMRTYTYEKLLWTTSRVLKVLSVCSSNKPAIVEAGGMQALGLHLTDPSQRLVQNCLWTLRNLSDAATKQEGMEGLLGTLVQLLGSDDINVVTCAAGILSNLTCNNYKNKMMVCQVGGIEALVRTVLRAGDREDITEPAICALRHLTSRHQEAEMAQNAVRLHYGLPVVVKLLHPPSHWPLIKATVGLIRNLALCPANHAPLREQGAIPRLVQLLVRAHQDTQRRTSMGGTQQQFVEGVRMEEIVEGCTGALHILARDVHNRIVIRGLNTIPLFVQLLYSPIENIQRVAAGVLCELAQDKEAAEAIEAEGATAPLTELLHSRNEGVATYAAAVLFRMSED
Experiment: competitive FP
Bridges are numbered along the chain shown (N, C = ends). Where no end group is shown, it is not given here. [ ]: non-standard residue; d: D form. NMeW = CN[C@@H](Cc1c[nH]c2ccccc12)C(=O)O; Chg = N[C@H](C(=O)O)C1CCCCC1; αMeV = CC(C)[C@](C)(N)C(=O)O; αMeS = C[C@](N)(CO)C(=O)O; NMeA = CN[C@@H](C)C(=O)O
QUANTITY KIND: Kd

I would be grateful if you could share the reported Kd for H-W[NMeW]E[αMeS]ILDEH[αMeV]QRVWG-NH2 [SEQ ID NO: 38] .
≤ 400 nM

Form field: reported Kd of Ac-W[NMeA]QSILDEH[Chg]QKVWG-NH2 (lactam 8-12; not fully specified; printed as Ac-NH-W-NMeA-QSILDE*H-Chg-QK*VWG-NH2) [SEQ ID NO: 470]
≤ 400 nM

Report Kd for W[NMeA]QKILDDH[Chg]QRVWG-NH2 (lactam 4-8; not fully specified (N-terminus); printed as H23C11C(O)NH-W-NMeA-QK*ILDD*H-Chg-QRVWG-NH2) [SEQ ID NO: 432] please.
≤ 400 nM
